- experimental.details: Animal acute toxicity test, maximal tolerable dose (MTD)
- Type: in vivo, ICR mice
- study.conditions: male, mouse, in vivo, iv; ICR mice, tail vein injection, administered by three times within 24 h
Ends that are not written are not given here.
measurement.type: MTD at 336 h (mg/kg)
Report the figure in mg/kg without appending any unit label.

INPUT: GET /values?readout=MTD at 336 h&item= FLFSLIPSAISG [sp4]
OUTPUT: 700
